- Experimental target: Tyk2 (Homo sapiens, UniProt P29597)
- Construct: purchased Invitrogen
- Sequence (P29597 whole entry): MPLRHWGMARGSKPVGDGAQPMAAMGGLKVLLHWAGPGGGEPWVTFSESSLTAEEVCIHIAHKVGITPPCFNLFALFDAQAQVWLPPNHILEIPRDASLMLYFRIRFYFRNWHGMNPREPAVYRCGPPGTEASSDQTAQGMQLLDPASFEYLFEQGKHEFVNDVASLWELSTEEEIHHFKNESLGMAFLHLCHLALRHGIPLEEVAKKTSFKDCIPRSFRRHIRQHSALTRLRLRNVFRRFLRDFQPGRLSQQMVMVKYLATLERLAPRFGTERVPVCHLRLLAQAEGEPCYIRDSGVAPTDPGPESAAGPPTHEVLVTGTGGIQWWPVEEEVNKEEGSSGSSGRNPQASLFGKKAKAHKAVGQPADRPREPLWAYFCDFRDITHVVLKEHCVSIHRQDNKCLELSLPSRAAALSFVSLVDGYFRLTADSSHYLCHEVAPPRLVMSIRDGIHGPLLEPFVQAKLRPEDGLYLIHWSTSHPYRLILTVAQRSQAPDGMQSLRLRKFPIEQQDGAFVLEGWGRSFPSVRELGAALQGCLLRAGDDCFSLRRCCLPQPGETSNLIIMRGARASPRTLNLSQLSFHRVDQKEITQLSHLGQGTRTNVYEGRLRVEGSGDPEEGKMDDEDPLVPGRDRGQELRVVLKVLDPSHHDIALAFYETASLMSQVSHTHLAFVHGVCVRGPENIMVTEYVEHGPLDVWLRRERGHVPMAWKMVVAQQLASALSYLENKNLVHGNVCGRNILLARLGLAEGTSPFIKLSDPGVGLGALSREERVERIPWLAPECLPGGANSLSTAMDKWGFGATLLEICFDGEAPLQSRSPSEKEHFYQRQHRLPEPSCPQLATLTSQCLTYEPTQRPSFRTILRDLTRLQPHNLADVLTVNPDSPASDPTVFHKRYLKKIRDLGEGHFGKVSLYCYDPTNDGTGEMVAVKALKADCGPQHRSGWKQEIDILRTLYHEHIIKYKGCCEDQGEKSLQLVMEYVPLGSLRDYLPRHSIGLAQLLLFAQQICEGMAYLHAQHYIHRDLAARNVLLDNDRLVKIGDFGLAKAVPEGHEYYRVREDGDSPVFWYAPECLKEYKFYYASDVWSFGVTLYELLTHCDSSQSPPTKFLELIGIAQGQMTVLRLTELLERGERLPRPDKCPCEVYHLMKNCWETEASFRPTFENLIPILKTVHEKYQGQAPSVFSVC
- Protocol: Tyk2 enzyme inhibition test (LANCE method)
- Format: biochemical
- Condition details: test compound 1 μM; read-out: Inhibitory rate (%) Tyk2 1 μM
Catalogue of molecules with associated inhibition at 1 µM
Report as: number unit

Check out these entries, answers already filled in.
CCC(COC)n1nc(-c2csc(C(N)=O)c2)c2c(=O)[nH]ccc21 (stereo not shown) [Example 150] = 98%
O=C(O)c1cc(-c2nn(-c3c(F)cccc3F)c3cc[nH]c(=O)c23)cs1 [Example 37] = 99%
O=c1[nH]ccc2c1c(-c1ccc(N3CCOCC3)cc1)nn2-c1c(F)cc(F)cc1F [Example 308] = 98%

# ---- query molecule ----
inhibition at 1 µM reading for N#Cc1c[nH]c(=O)c2c1c(C1CCCC1)cn2-c1csc(C(N)=O)c1 [Example 118] : 99%

====

Catalogue of compounds with associated inhibition at 1 µM
- Experimental target: JAK1 (Homo sapiens, UniProt P23458)
- Construct: purchased Invitrogen
- Sequence (P23458 whole entry): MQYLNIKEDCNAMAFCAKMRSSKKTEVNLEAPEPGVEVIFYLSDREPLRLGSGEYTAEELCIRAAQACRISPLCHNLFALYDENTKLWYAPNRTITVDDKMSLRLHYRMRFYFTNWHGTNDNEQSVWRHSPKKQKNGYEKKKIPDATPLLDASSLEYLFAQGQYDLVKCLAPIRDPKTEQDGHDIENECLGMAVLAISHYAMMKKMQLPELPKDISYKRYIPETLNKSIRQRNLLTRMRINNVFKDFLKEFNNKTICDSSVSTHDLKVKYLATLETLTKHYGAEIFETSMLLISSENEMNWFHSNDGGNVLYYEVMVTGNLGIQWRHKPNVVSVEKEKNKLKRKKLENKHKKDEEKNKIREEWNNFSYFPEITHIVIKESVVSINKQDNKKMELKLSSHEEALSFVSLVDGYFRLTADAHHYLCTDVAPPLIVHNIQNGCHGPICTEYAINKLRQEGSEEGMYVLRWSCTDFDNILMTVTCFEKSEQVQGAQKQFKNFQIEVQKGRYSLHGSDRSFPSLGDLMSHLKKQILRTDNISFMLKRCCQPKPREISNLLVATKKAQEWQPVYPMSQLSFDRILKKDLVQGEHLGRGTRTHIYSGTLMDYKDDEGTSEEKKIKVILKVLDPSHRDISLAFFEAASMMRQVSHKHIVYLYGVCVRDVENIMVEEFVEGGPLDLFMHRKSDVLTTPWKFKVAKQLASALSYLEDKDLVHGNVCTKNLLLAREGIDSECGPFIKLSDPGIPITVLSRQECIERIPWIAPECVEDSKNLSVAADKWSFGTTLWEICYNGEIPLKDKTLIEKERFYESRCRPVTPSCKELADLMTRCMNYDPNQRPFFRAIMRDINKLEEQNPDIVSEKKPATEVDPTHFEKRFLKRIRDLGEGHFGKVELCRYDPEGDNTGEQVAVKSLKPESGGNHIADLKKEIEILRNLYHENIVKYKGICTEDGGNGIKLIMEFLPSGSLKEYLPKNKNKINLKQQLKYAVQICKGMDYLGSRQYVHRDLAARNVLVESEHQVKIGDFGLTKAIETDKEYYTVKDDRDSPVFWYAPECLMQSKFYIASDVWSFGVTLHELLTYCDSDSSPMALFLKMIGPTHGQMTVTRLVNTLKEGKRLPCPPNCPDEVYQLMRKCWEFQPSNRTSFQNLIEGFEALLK
- Protocol: JAK1 enzyme inhibition test (LANCE method)
- Assay type: biochemical
- Condition details: test compound 1 μM; read-out: Inhibitory rate (%) JAK1 1 μM
Could you give me the number in %? Just the number is fine.

Check out these entries, answers already filled in.
CN(C)Cc1cccc(-c2nn(-c3c(F)cccc3F)c3cc[nH]c(=O)c23)c1 = 43
N#CCc1ccc(-c2cn(C3CCCC3)c3c(C#N)c[nH]c(=O)c23)cc1 = 94
CC1(C)CCCC1n1nc(-c2ccc(N3CCOCC3)cc2)c2c(=O)[nH]ccc21 (centres unmarked) = 95
CC(C)(C)n1nc(-c2csc(C(N)=O)c2)c2c(=O)[nH]ccc21 = 98
COC(=O)c1cc(-n2nc(-c3ccccc3C)c3c(Br)c[nH]c(=O)c32)cs1 = 23
CCC(CC)n1nc(-c2csc(C(N)=O)c2)c2c(=O)[nH]ccc21 = 100
N#Cc1c[nH]c(=O)c2c(-c3ccc(N4CCOCC4)cc3)nn(-c3c(F)cccc3F)c12 = 81

# ---- query compound ----
inhibition at 1 µM reading for Cn1cc(-c2cn(C3CCCC3)c3c(C#N)c[nH]c(=O)c23)cn1 : 97

====

Catalogue of compounds with associated inhibition at 10 µM
- Experimental target: JAK1 (Homo sapiens)
- Construct: purchased Invitrogen
- Protocol: JAK1 enzyme inhibition test (LANCE method)
- Assay type: biochemical
- Condition details: test compound 10 μM; read-out: Inhibitory rate (%) JAK1 10 μM
Report as: number unit

O=c1[nH]ccc2c1c(C1=CCCCC1)nn2C1CCCC1 [Example 41] = 38%
CC1(C)OCC(Cn2cc(-c3ccc(S(N)(=O)=O)cc3)c3c(=O)[nH]ccc32)O1 (centres unmarked) [Example 90] = 38%
CNC(=O)Cc1ccc(F)c(-c2nn(-c3c(F)cccc3F)c3cc[nH]c(=O)c23)c1 [Example 293] = 0%
NS(=O)(=O)c1ccc(Cn2nc(-c3ccccc3)c3cc[nH]c(=O)c32)cc1 [Example 19] = 44%
O=c1[nH]ccc2c1c(-c1ccccc1C(F)(F)F)nn2C1CCCC1 [Example 53] = 10%
NC(=O)c1ccc(F)c(-c2nn(-c3c(F)cccc3F)c3c(Cl)c[nH]c(=O)c23)c1 [Example 269] = 24%
CC(C)(C)n1nc(NC(=O)c2ccccc2)c2c(=O)[nH]ccc21 [Example 265] = 21%

# ---- query compound ----
inhibition at 10 µM reading for COc1ccc(CNc2nn(C(C)(C)C)c3cc[nH]c(=O)c23)cc1 [Example 249] : 30%

====

Catalogue of molecules with associated inhibition at 1 µM
- Experimental target: Tyk2 (Homo sapiens)
- Construct: purchased Invitrogen
- Protocol: Tyk2 enzyme inhibition test (LANCE method)
- Type: biochemical
- Condition details: test compound 1 μM; read-out: Inhibitory rate (%) Tyk2 1 μM
Report as: number unit

CN(C)Cc1cccc(-c2nn(-c3c(F)cccc3F)c3cc[nH]c(=O)c23)c1 = 88%
N#Cc1cccc(F)c1-n1nc(-c2ccc(N3CCOCC3)cc2)c2c(=O)[nH]ccc21 = 99%
N#Cc1c[nH]c(=O)c2c(-c3cnn(C4CC4)c3)cn(C3CCCC3)c12 = 99%

inhibition at 1 µM reading for COCCNC(=O)COc1ccc(-c2nn(-c3c(F)cccc3F)c3c(Cl)c[nH]c(=O)c23)cc1 : 99%

inhibition at 1 µM reading for CCC(COC)n1cc(-c2ccc(C#N)cc2)c2c(=O)[nH]ccc21 (centres unmarked) : 33%

inhibition at 1 µM reading for N#Cc1c[nH]c(=O)c2c(-c3cn[nH]c3)nn(-c3c(F)cccc3F)c12 : 99%

inhibition at 1 µM reading for N#Cc1cccc(F)c1-n1nc(-c2ccc(N3CCOCC3)nc2)c2c(=O)[nH]ccc21 : 98%

inhibition at 1 µM reading for COC(=O)c1cc(-c2nn(-c3c(F)cccc3F)c3cc[nH]c(=O)c23)cs1 : 98%

====

- Experimental target: JAK1 (Homo sapiens)
- Construct: purchased Invitrogen
- Protocol: JAK1 enzyme inhibition test (LANCE method)
- Format: biochemical
- Condition details: test compound 1 μM; read-out: Inhibitory rate (%) JAK1 1 μM
Readout: inhibition at 1 µM (%)
Could you give me the number in %? Just the number is fine.

C[C@H]1CCC[C@H]1n1cc(-c2ccc(S(N)(=O)=O)cc2)c2c(=O)[nH]ccc21 (relative stereo) = 99
COC(=O)c1c[nH]c(=O)c2c(-c3csc(-c4noc(=O)[nH]4)c3)cn(C3CCCC3)c12 = 44
O=c1[nH]ccc2c1c(-c1cn[nH]c1)nn2-c1c(F)cccc1F = 98
CN(C)NC(=O)c1ccc(-c2nn(-c3c(F)cccc3F)c3cc[nH]c(=O)c23)cc1 = 92
N#CCc1cc(-c2cn(C3CCCC3)c3c(C#N)c[nH]c(=O)c23)cs1 = 98
Cn1cc(-c2nn(-c3c(F)cccc3F)c3cc[nH]c(=O)c23)ccc1=O = 72

inhibition at 1 µM reading for Cc1c[nH]c(=O)c2c(-c3csc(C(N)=O)c3)nn(C3CCCC3)c12 : 96

inhibition at 1 µM reading for NC(=O)Cc1cccc(-c2nn(-c3c(F)cccc3F)c3cc[nH]c(=O)c23)c1 : 91

inhibition at 1 µM reading for CCC(COC)n1cc(-c2ccc(C#N)cc2)c2c(=O)[nH]ccc21 (stereo not shown) : 35

inhibition at 1 µM reading for NS(=O)(=O)c1ccc(-c2nn(C3CCCOC3)c3cc[nH]c(=O)c23)cc1 (stereo not shown) : 99

inhibition at 1 µM reading for CNC(=O)c1ccc(-c2nn(-c3c(F)cccc3F)c3cc[nH]c(=O)c23)cc1 : 92

inhibition at 1 µM reading for O=c1[nH]cc(Cl)c2c1c(-c1cn[nH]c1)nn2-c1c(F)cccc1F : 91

inhibition at 1 µM reading for NC(=O)Cc1ccc(-c2nn(-c3c(F)cccc3F)c3c(Br)c[nH]c(=O)c23)cc1 : 89

inhibition at 1 µM reading for N#Cc1cc(F)c(-n2nc(-c3ccc(N4CCOCC4)cc3)c3c(=O)[nH]ccc32)c(F)c1 : 89

inhibition at 1 µM reading for O=c1[nH]ccc2c1c(Nc1ccccc1)nn2C1CCCC1 : 98

====

Catalogue of molecules with associated Inhibitory rate (%) Tyk2 1 μM
- Experimental target: Tyk2 (Homo sapiens, UniProt P29597)
- Construct: purchased Invitrogen
- Protocol: Tyk2 enzyme inhibition test (LANCE method)
- Assay type: biochemical
- Condition details: test compound 1 μM
Could you give me the number in %? Just the number is fine.

Inhibitory rate (%) Tyk2 1 μM reading for CC1(O)CCC(n2nc(-c3csc(C(N)=O)c3)c3c(=O)[nH]ccc32)CC1 (stereo not drawn) : 100

Inhibitory rate (%) Tyk2 1 μM reading for NS(=O)(=O)c1ccc(-c2nn(C3CCOC3)c3cc[nH]c(=O)c23)cc1 (stereo not drawn) [Example 83] : 89

====

- Experimental target: JAK1 (Homo sapiens, UniProt P23458)
- Construct: purchased Invitrogen
- Protocol: JAK1 enzyme inhibition test (LANCE method)
- Format: biochemical
- Condition details: test compound 1 μM; read-out: Inhibitory rate (%) JAK1 1 μM
Catalogue of compounds with associated inhibition at 1 µM

Check out these entries, answers already filled in.
N#CCc1cccc(-c2nn(C3CCCC3)c3cc[nH]c(=O)c23)c1 = 93%
NC(=O)c1cc(F)c(-n2nc(-c3ccc(N4CCOCC4)cc3)c3c(=O)[nH]ccc32)c(F)c1 = 96%
CCC(CC)n1cc(-c2csc(C(=O)OC)c2)c2c(=O)[nH]ccc21 = 95%
Cc1ccccc1-c1nn(-c2csc(C(N)=O)c2)c2c(=O)[nH]cc(Br)c12 = 82%
COC(=O)c1cc(-c2cn(C3CCCC3)c3cc[nH]c(=O)c23)cs1 = 97%

Per the reported JAK1 (Homo sapiens, UniProt P23458) data, Cn1ccc(-c2cn(C3CCCC3)c3c(C#N)c[nH]c(=O)c23)n1 has inhibition at 1 µM of 59%

Per the reported JAK1 (Homo sapiens, UniProt P23458) data, COc1ccc(Cn2nc(-c3ccc(S(N)(=O)=O)cc3)c3c(=O)[nH]ccc32)cc1 has inhibition at 1 µM of 80%

Per the reported JAK1 (Homo sapiens, UniProt P23458) data, N#Cc1c[nH]c(=O)c2c(-c3cn[nH]c3)cn(C3CCCC3)c12 has inhibition at 1 µM of 96%
